# system: Aggrecan core protein (Bos taurus)
# run description: Binding affinity to bovine articular cartilage aggrecan at 500 uM by SPR analysis
Active and inactive are the calls of the source. The calls are words filed in the database; no cut-off is given here.
experimental endpoint: Activity

// solved cases for Activity follow
>  <compound>
Cn1c(COP(=O)(NCCC[N+](C)(C)Cc2ccccc2)N(CCCl)CCCl)cnc1[N+](=O)[O-].[I-] (stereo not drawn)

>  <result>
Active

$$$$
>  <compound>
CC[N+](C)(CCCCNP(=O)(OCc1cnc([N+](=O)[O-])n1C)N(CCCl)CCCl)Cc1ccccc1.[I-] (stereo not drawn)

>  <result>
Active

$$$$
>  <compound>
CC[N+](C)(CC)CCCCNP(=O)(OCc1cnc([N+](=O)[O-])n1C)N(CCCl)CCCl.[I-] (stereo not drawn)

>  <result>
Active

$$$$
>  <compound>
Cn1c(COP(=O)(NCCCC[N+](C)(C)Cc2ccccc2)N(CCCl)CCCl)cnc1[N+](=O)[O-].[I-] (stereo not drawn)

>  <result>
Active

$$$$
>  <compound>
CC[N+](C)(CCCCCNP(=O)(OCc1cnc([N+](=O)[O-])n1C)N(CCCl)CCCl)Cc1ccccc1.[I-] (stereo not drawn)

>  <result>
Active

$$$$

Print Aggrecan core protein (Bos taurus) Activity for CC[N+](C)(C)CCCCNP(=O)(OCc1cnc([N+](=O)[O-])n1C)N(CCCl)CCCl.[I-] (stereo not drawn) . Active

GET Activity | system: Aggrecan core protein (Bos taurus) | item: Cn1c(COP(=O)(NCC[N+](C)(C)Cc2ccccc2)N(CCCl)CCCl)cnc1[N+](=O)[O-].[I-] (stereo not drawn) Active

Quote Activity with test system Aggrecan core protein (Bos taurus) for Cn1c(COP(=O)(NCCCCC[N+](C)(C)C)N(CCCl)CCCl)cnc1[N+](=O)[O-].[I-] (stereo not drawn) Active

---

# System: H-EMC-SS
# run description: Antiproliferative activity against human HEMC-SS cells treated for 24 hrs under hypoxic condition followed by compound wash-out and incubated under normoxic condition for 48 hrs by alamar blue assay
# Format: functional, cell-based
pIC50: −log10 of the molar value.
Kindly return YES if reported pIC50 is no lower than 6; return NO if it is lower.

>  <compound>
Cn1c(COP(=O)(NCCBr)NCCBr)cnc1[N+](=O)[O-] [EVOFOSFAMIDE]

>  <assigned class>
YES

$$$$
>  <compound>
CC[N+](C)(CCCCNP(=O)(OCc1cnc([N+](=O)[O-])n1C)N(CCCl)CCCl)Cc1ccccc1.[I-] (centres undefined)

>  <assigned class>
NO

$$$$
>  <compound>
Cn1c(COP(=O)(NCCC[N+](C)(C)Cc2ccccc2)N(CCCl)CCCl)cnc1[N+](=O)[O-].[I-] (centres undefined)

>  <assigned class>
YES

$$$$
>  <compound>
CC[N+](C)(CC)CCCCNP(=O)(OCc1cnc([N+](=O)[O-])n1C)N(CCCl)CCCl.[I-] (centres undefined)

>  <assigned class>
NO

$$$$

State whether the measured pIC50 reaches 6, counting equality as reaching it, for Cn1c(COP(=O)(NCCCC[N+](C)(C)Cc2ccccc2)N(CCCl)CCCl)cnc1[N+](=O)[O-].[I-] (centres undefined) NO

Entry Cn1c(COP(=O)(NCCC[N+](C)(C)C)N(CCCl)CCCl)cnc1[N+](=O)[O-].[I-] (centres undefined) : is its pIC50 no less than 6? NO

Test whether the compound CC[N+](C)(CCCNP(=O)(OCc1cnc([N+](=O)[O-])n1C)N(CCCl)CCCl)Cc1ccccc1.[I-] (centres undefined) records pIC50 of 6 or higher. NO

Say whether Cn1c(COP(=O)(NCCCCC[N+](C)(C)C)N(CCCl)CCCl)cnc1[N+](=O)[O-].[I-] (centres undefined) shows pIC50 of 6 or more. NO

Answer whether pIC50 of Cn1c(COP(=O)(NCCCCC[N+](C)(C)Cc2ccccc2)N(CCCl)CCCl)cnc1[N+](=O)[O-].[I-] (centres undefined) is greater than or equal to 6. NO
